# Experiment description: Cytotoxicity against human MDA-MB-435 cells assessed as decrease in cell viability after 72 hrs by MTT assay
# Type: functional, cell-based
# Particulars: MDA-MB-435, 72 h
pIC50 values by entry
The scale used: pIC50 is minus the common logarithm of the concentration in molar units.

# example entries with known answers
O=C1C(=O)c2ccccc2C2=C1CC(Cn1nnc(-c3ccccc3)c1-c1ccccc1)O2 (centres undefined) | 5.93
O=C1C(=O)c2ccccc2C2=C1CC(Cn1cc(C3=CCCCC3)nn1)O2 (centres undefined) | 5.57

Please look at the following compound next.
Could you tell me which pIC50 is on file for O=C1C(=O)c2ccccc2C2=C1CC(Cn1cc(C3CCCCC3)nn1)O2 (centres undefined) ?
5.92
